Assay type: in vivo, human
Conditions: human, plasma, oral, 12 mg, Median AUC based on the starting dose, subjects with early dose withdrawal or reduction; steady state, model‐derived
quantity.name: AUC (ng·h/mL)
Answer with a number only, understood to be in ng·h/mL.

Query block: Item under review: "COc1cc2nccc(Oc3ccc(NC(=O)NC4CC4)c(Cl)c3)c2cc1C(N)=O" . Reported AUC?
Result block: 2950

----------
Type: in vivo, human
Conditions: human, plasma, oral, 12 mg, Median AUC based on the starting dose, subjects without early dose modification; steady state, model‐derived
quantity.name: AUC
Note: a bare number is incomplete; add the unit.

Query block: Item under review: "COc1cc2nccc(Oc3ccc(NC(=O)NC4CC4)c(Cl)c3)c2cc1C(N)=O" . Reported AUC?
Result block: 2050 ng·h/mL
